Target: T1, human GFRα3 expressed with a C-terminal mFc tag (human)
T1 construct: also called hGFRα3-mFc
T1 chain: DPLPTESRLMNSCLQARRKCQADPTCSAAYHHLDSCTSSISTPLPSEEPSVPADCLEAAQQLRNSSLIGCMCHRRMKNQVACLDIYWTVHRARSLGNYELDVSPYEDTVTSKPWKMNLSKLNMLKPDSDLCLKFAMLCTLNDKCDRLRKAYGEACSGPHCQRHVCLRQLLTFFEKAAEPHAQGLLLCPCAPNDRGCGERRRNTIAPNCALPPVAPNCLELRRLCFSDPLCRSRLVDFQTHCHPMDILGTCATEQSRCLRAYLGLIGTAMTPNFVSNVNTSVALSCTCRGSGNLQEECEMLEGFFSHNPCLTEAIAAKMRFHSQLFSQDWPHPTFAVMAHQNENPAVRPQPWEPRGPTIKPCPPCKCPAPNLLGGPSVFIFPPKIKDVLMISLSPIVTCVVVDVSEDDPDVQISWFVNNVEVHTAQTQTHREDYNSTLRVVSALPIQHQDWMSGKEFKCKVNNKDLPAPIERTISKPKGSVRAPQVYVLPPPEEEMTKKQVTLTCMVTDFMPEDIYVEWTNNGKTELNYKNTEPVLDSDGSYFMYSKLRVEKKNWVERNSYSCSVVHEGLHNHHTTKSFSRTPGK
Test: SPR, Ab captured, 37C
Reported metric: kon (M⁻¹ s⁻¹)

Binder	Reported metric	Result
H4H2295S (antibody, human IgG4, V domains shown, human IgG4 Fc (H4H)) VH: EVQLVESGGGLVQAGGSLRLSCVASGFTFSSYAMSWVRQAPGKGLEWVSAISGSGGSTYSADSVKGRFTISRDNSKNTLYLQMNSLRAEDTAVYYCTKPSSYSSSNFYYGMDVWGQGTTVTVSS VL: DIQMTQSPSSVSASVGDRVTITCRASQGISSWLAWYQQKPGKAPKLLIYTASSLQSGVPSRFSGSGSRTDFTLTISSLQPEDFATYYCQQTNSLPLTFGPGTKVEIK	kon	1.62e+06
H4H2342P (antibody, human IgG4, V domains shown, human IgG4 Fc (H4H)) VH: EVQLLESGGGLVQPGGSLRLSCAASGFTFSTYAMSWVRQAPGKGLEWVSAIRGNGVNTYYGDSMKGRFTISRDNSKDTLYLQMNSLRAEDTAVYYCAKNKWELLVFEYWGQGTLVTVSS VL: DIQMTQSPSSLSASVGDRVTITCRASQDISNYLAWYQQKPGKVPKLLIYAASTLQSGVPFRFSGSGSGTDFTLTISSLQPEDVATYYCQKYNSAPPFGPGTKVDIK	kon	1.21e+06
H4H2352S (antibody, human IgG4, V domains shown, human IgG4 Fc (H4H); also called H4H2352S-1) VH: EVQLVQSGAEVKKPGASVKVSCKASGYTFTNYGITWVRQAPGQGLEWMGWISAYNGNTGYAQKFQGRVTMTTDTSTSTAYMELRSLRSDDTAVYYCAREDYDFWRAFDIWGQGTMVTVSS VL: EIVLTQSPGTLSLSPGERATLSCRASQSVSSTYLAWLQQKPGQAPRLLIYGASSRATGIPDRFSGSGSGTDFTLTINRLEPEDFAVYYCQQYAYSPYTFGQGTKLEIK	kon	2.28e+06
